Reference source for all entries: the supplement of paper PMC6555819

Test system: RXRa homodimer (NR concentration 180 nM)
Assay notes: PBM binding z-score (relative to random genomic background probes); higher = stronger binding; sequences stand for … in GC…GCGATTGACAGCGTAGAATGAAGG
Measurement label: PBM binding z-score

Example entries and their recorded answers appear below.
*Q* Report PBM binding z-score for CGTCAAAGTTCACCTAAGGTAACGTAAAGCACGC please.
*A* 5.09

*Q* Report PBM binding z-score for CCTACTGGGCCAACAAGGTCATTGATGCCGATAA please.
*A* 3

*Q* Report PBM binding z-score for CTATGTCGGTTAAGGGGGTCATTCAGTTTGAAAG please.
*A* 5.04

I need PBM binding z-score for every entry listed below, if you could help.
1. GCTGCTAGGTCAACTGAAGGTCAGCTAAAGCTCG
2. ATATGTAGGTAAGGGTCATTCAGAAAGTAGGGAA

*A*
1. 4.88
2. 4.88

---

System: RARa:RXR (NR concentration 270 nM, RXRa partner concentration 90 nM)
Assay notes: PBM binding z-score (relative to random genomic background probes); higher = stronger binding; sequences stand for … in GC…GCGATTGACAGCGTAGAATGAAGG
Measurement label: PBM binding z-score
Give bare numbers.

*Q* Notebook: pull reported PBM binding z-score for RARa:RXR (NR concentration 270 nM, RXRa partner concentration 90 nM), entry CGTCCAAGGTCATAGGAGTTCAGTGAAGACAGAT
*A* 5.59

*Q* Notebook: pull reported PBM binding z-score for RARa:RXR (NR concentration 270 nM, RXRa partner concentration 90 nM), entry CTATGTAGGTTAAGGGGGTCATGCAGTTTGAAAG
*A* 6

*Q* Notebook: pull reported PBM binding z-score for RARa:RXR (NR concentration 270 nM, RXRa partner concentration 90 nM), entry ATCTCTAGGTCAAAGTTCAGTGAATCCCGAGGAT
*A* 6.71

*Q* Notebook: pull reported PBM binding z-score for RARa:RXR (NR concentration 270 nM, RXRa partner concentration 90 nM), entry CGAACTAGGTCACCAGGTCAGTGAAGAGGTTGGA
*A* 4.36

*Q* Notebook: pull reported PBM binding z-score for RARa:RXR (NR concentration 270 nM, RXRa partner concentration 90 nM), entry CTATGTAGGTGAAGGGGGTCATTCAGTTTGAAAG
*A* 6.01

I need PBM binding z-score for every entry listed below, if you could help.
1. CGTCCAAGGTCAGCAGGTCAGAGAAAGCGACGTG
2. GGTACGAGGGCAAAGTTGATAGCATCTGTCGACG
3. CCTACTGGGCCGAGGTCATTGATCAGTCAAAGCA
4. TGAATGAGGTCAAAGATCAGGGAACGTGGCGTCG
5. CGCCCAAGGTCAGCAGGTCAGTGAAAGCGACGTG
6. TCGAGTAGGTTACGAGGGCATTCAGGGATGAAGA

*A*
5.74
1.42
4.33
6.5
5.15
1.69

---

System: RXRa DBDmut IVT, anti-RXR (DBD mutation: RXRa K156A/R161A, NR concentration 90 nM)
Assay notes: PBM binding z-score (relative to random genomic background probes); higher = stronger binding; sequences stand for … in GC…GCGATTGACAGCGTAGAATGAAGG
Measurement label: PBM binding z-score
Numbers only.

*Q* Report PBM binding z-score for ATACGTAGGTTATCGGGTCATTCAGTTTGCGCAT please.
*A* 1.77

*Q* Report PBM binding z-score for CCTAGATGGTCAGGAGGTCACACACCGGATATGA please.
*A* 0.392

New cases:
*Q* Report PBM binding z-score for TAGCCTAGGTCCTTCAGGGGCCAGTATAGAAAGC please.
*A* -1.03
